Where do these numbers come from? They come from the nanobody polyreactivity screen of Harvey et al. (2022).

ASSAY METHOD TEXT: yeast display, Sf9 membrane polyspecificity reagent, FACS + sequencing; frameworks hold sequencing errors
MEASURED PROPERTY: polyreactivity (PSR sort gate)

A selection of reference data follows.
POLYMER SEQUENCE	RESULT
QVQLVESGGGLVQAGGSLSISCAASGRNFGYYTMGWYRQAPGKERELGAAITSGGRTNYADSVKGRFTISRDNAKNTVYLQMNSLKPEDTAVYYCNARRDSTRRGTWYEYWGQGTQVTVSS	high polyreactivity
QVQLVESGGGLVQAGGSLRLSCASSGYTFDYYTMGWYRQAPGKERELVARITASGGSTYYADSVKGRFTISRDNAKNTVYLQMNSLKPEDTSVYYCAKAWYRYSRFDYWGQGTQVTVSS	high polyreactivity
QVQLVESGGGLVQAGGSLRLSSAASGRIFNIYAMGWYRQAPGKERELVARITSGGRTNYADSVKGRFTISRDNAKNTVYLQRNSLKPEDTAVYYCAARTYGQRGDYWGQGTQVTVSS	high polyreactivity
QVHLGESGGRLVQPGGSLRLSCAASGCTFCPYAMGWSRQAPGKARELVAAISNGGGPKYADSVKCRFTISRDNAKHTVYLQMNSLKPEDTAVYYCAKTLWTGRAWYDYWGQGTQVTVSS	high polyreactivity
QDQLVESGGGLVQAGGSLRLSCAASGSIFYRNAMGWYIQATGKERELVAAISSDGSTNYADSVKGRFTISRDNAKNTVYLQMNSLKPEDTAVYFCAAPWTQILDYWGQGTQVTVSS	low polyreactivity

[Q] Kindly indicate its recorded polyreactivity (PSR sort gate). Item: QVQLVESGGGLVQAGGSLRLSCASSGRNFRGYAMGWYRQAPGKEREFVAAITKNGGSTYYADSVKGRFTISRDNAKNTVYLQMNSLKPEDTAVYYCAVRAWDPYTGKSDYWGQGTQVTVSS
[A] low polyreactivity

[Q] Specify measured polyreactivity (PSR sort gate) for QVQLVESGGGLVQAGGSLRLSCAASGFIFQANAMGWYRQAPGKETELDAAIDDGDTTYADSVKGRFTISRDNAKNTVYLQMNSLKPEDTAGYYCATRRNRSYDYWGQGTQVTVSS .
[A] low polyreactivity

---

ASSAY METHOD TEXT: yeast display, Sf9 membrane polyspecificity reagent, FACS + sequencing; frameworks hold sequencing errors
MEASURED PROPERTY: polyreactivity (PSR sort gate)

POLYMER SEQUENCE	MEASURED PROPERTY	RESULT
QVQLVESGGGLVQAGGSLRLSCAASGRTFGTNAMGWYRQAPGKERELVAAISWRGTSTYYADSVKGRFTISRDNAKNTVYLQMNSLKPEDTAVYYCAADFSYTSYATRYQGDYWGQGTQVTVSS	polyreactivity (PSR sort gate)	low polyreactivity
QVQLVESGGGLVQAGGSLRLSCAASGIIFSFYAMGWYRKAPGKERELVAAISQSGGSTYYADSVKGRFTISRDNAKNTVYLQMNSLKPEDTAVYYCAVAGWYGSEYWGQGTQVTVSS	polyreactivity (PSR sort gate)	high polyreactivity
QVQLVESVGGLDQAGGSLRLTCAASVSIFRNYAMGWYRQAPGKERELVASIRYSGGRTNYADSVKGRFTISRDNAKNTVYVPMNSLTPEDTAVYYCAAATHYWYFYSFKDKSGFRGYYWGQGTHVTVSS	polyreactivity (PSR sort gate)	high polyreactivity
QVQLVESGGGLVQAGGSLRLSCAASGLTFYGYVMGWYRQAPGKERELVASISRSGGRTYYADSVKGRFTISRDNAKNTVYLQMNSLKPEDTAVYYCAAADQVGQEDDYWGQGTQVTVSS	polyreactivity (PSR sort gate)	low polyreactivity
QVQLVESGGGLVQAGGSLRLSCAASGFTFFANAMGWYRQAPGKERELVAAISISDATTYYADSVKGRFTISRDNAKNTVYLQMNSLKPEDTAVYDCAAEPEYIAGPLDYWGQGTQVTVSS	polyreactivity (PSR sort gate)	high polyreactivity
QDQLVESGGGLVQAGGSLRLSCAASGSIFRVYAMGRYRQAPGKERELVAAISSIVGSTYYADSVKGRFTISRDNAKNSVYLQMNSLKPEDTAVYDCNKEGTWPRTGSEYDSWGQGSQVTVSS	polyreactivity (PSR sort gate)	low polyreactivity

[Q] Look up and state reported polyreactivity (PSR sort gate) for QVQLVESGGGLVQAGGSLRLSCAASVFIFDTYTMGWYRQAPGKERELVAAITGSGVNTYYADSVKGRFTISRDNAKNTVYLQMNSLKPEDTAVYYCAARRKNRRDYDYYYWGQGTQVTVSS
[A] high polyreactivity

[Q] Give the measured polyreactivity (PSR sort gate) for QVHLVESGGGLVQAGGSLRLSCAASGYIFQYYAMGWSRQAPGKERELVAAITGGGSTKYADSVKGRFTISRDNAKNTVYLHMNSLKPEDTAVYYCAASLWYRISKYDYWGLGTQVTVSS
[A] high polyreactivity

---

ASSAY METHOD TEXT: yeast display, Sf9 membrane polyspecificity reagent, FACS + sequencing; frameworks hold sequencing errors
MEASURED PROPERTY: polyreactivity (PSR sort gate)

Known polyreactivity (PSR sort gate) results, listed for orientation:
POLYMER SEQUENCE	polyreactivity (PSR sort gate)
QVQLVESGGGLVQAGGSLRLSCAASGNTFPLNAMGWYRQAPGKERDLVAGISRTGGSTYYADSVKGRFTISRDNAKNTVYLQMNSLKPEDTAVYYCAAQSRYWVVRMDYWGQGTQVTVSS	high polyreactivity
QVQLVVSGGGLVQAGGSLRLSCAASGSIFNVYAMGWYRPAPGKARELVAAITNGDSTNYADSVKGRFTISRDTAKNTVYLQMHSLKPEDTAVYYCNARAPSEYYGLEYDDWGQGTQGTVSS	low polyreactivity
QVQLVESGGGLVQAGGSLRLSCAASGSTFVDNALGGYRQAPGKERELVAGISIGGITYYADSVKGRFTISRDNAKNTVYLQMNSLKPEDTAVYYCAKRHKRTRNKYYYWGQGTQVTVSS	high polyreactivity
QVQLVESGGGLVHAGGSLRLSCAASGFIFNFYAMGWYRQAPGKERELVAAISRTGGSTYYADSVKGRFTISRDNAKNTVYLQMNSLKPEDTAVYYCNAGCGFRSYGYDPWGQGTQVTVSS	high polyreactivity
QVQLVESGGGLVQAGGSLRLSCAASGSTFSGNAMGWYRQAPGKERELVAAITSGGSTNYADSVKGRFTISRDNAKNTVYLDMNSLKPEDTAVYYCAKRYGYRRYYTASDYWGQGTQVTVSS	low polyreactivity

[Q] For QYQLVESGGGLVHEGGSLSLRCAASGSNLYYYAMGWYRKAPGKERDLDAAITYSGGNTYYADSVKGRFTISRDNAKNNVYLQMNSLKPEDTAVYYCAADDWSSDYIRYEYWGQGTQVTVSS , write its polyreactivity (PSR sort gate).
[A] low polyreactivity

[Q] Recall and state the measured polyreactivity (PSR sort gate) for QVQLVESGGGLVQAGGSLRLSCAASGSTFDDNALGWYRQAPGKERELVAAISSRGSTYYADSVKGLFTISRDNAKNTVYLQMNSLKPEDTAVYYCAKRTYRYYGLNAYYYWGQGTQVTVSS .
[A] high polyreactivity

[Q] Find the measured polyreactivity (PSR sort gate) of QVQLVESGGGLVQAGGSLRLSCAASGNIFYGYAMGWYRQAPGKERELVAAITSDGITYYADSVKGRFTISRDNAKNTVYLQMNSLKPEDTAVYYCNVTQLYEYYKYYYWGQGTQVTVSS and report it.
[A] low polyreactivity

[Q] Read the entry QVQLVESGGGLVQAGGSLRLSCAASGRTFVSYAMGWYRQAPGKERELVAAIRYRGGSTYYADSVKGRFTISRDNAMNTVYLQMNSLKPEDTAVYYCAANQGRYNIYSNYDYWGQGTQVTVSS and write its reported polyreactivity (PSR sort gate).
[A] high polyreactivity

[Q] Tell me measured polyreactivity (PSR sort gate) for QVHLVQSGGGIDQAGGSLRLSCAASGSTYVVNTMGWYRQAPGKDRELVAANTQSGGSTFYADSVKGRFTISRDNAKNTVYLHMTSLKAEDTAVYYCNAGDFEGAVVVFIQHGGYYWGQGTQVTVSS please.
[A] low polyreactivity

[Q] Report polyreactivity (PSR sort gate), nothing else, for this sequence: QVQLVESGGGLVQAGGSLRLSSAASGIIFGVYGMGWYRPAPGKERELVASIRYSSVRTYYADSVKGRFTISRDNAKNTVYLQMNSLKPEDTAVYYCAKYYVWPSYGYWGQGTQVTVSS
[A] high polyreactivity

[Q] Complete the entry with polyreactivity (PSR sort gate) for QVQLVESGGGLVQAGGSLRLSCAASGIIFRYNTMGWYRQAPGKERELVAAITRSGGSTYYADSVKGRFTISRDNAKNTVYLQMNSLKPEDTAVYYCAAQGYSYRHTAFEYWGQGTQVTVSS
[A] high polyreactivity

[Q] Could you please provide reported polyreactivity (PSR sort gate) for QVQLVESGGGLVQAGGSLRLSCAASGSTFNGYTMGWYRQAPGKEREFVATITFSDGSTYYADSVKGRFTISRDNAKNTVYLQMNSLKPEDTAVYYCNVDSPIGYDYWGQGTQVTVSS ? Thanks!
[A] low polyreactivity

[Q] Give polyreactivity (PSR sort gate) for the following sequence: QVQLVESGGGLVQAGGSLRLSCAASGFTFYFYAMGWYRQAPGKERELVATITIGGRTNYADSVKGRFTISRDNAKNTVYLQMNSLKPEDTAVYYCAAAYLWISRYSGYDYWGQGTQVTVSS
[A] high polyreactivity

[Q] Give polyreactivity (PSR sort gate) for the following sequence: QVQLHESGCVLVQAGGSLRLRCAASRNISGSSDLGWYHQAPGKEREFVASITSGGTTYYADSVKVRFTISRDNAKNTVYLQMNSLKPEDTAVYYCAVGDPADAEFGYWGQGTQVTVSS
[A] low polyreactivity

[Q] Quick one: give measured polyreactivity (PSR sort gate) for QVQLVESGGGLVQAGGSLRLSCASSGRIFGGYAMGWYRQAPGTELELVAAISSGGSTYYADSVKGRFTISRDNAKNTVYLQMNSLKPEDTAVYYCYAYYPWRWGSYPFDYWGQGTQVTVSS
[A] high polyreactivity

[Q] For the sequence QVQLVESGGGLVQAGGSLRLSCAASGSTFIVNALGGYRQAPGHEREFVAAIRWSGGSTYYADSVKGRFTISRDNAKNTVYFQMNSLKPDDTAVYYCNARSYQSARFRGGYWGQGTQVTVSS , report polyreactivity (PSR sort gate).
[A] high polyreactivity

[Q] Tell me polyreactivity (PSR sort gate) reported for QVQHVQSGGGLVQAGGSLRLSCAASGRTNPFYAMGWYRQAPGKERELVAAISSSAGRTYYADSVKGRFTISRDNAKNTFYFEMNSLKPEDTAVYYCAARLYGRYRYDYWGQGTQVTVSS
[A] low polyreactivity

[Q] Given the sequence QVQLVESGGGLVQAGGSLLLICAASGITFWSYAMGWYRQAPGKERELVAAISSTGSTNYADSVKGRFTISRDNAKNTVYLQMNSLKPEDTAVYYCAAEYTFWWSRTGKYYYWGQGTQVTVSS , write its reported polyreactivity (PSR sort gate).
[A] high polyreactivity

[Q] Give the measured polyreactivity (PSR sort gate) for QGQLVESGGGLVQAGGSLSLSCAASGFTFRYYTMGWYIQAPGKERALVASISRRGGSTYYADSVKGRFTISRDNAMNTVYLQMHSLKPEGTAVYYCNPLSQVFASRAPKFDYWGQGTQVTVSS
[A] high polyreactivity

[Q] # return recorded polyreactivity (PSR sort gate) for input QVQLVESGGGLVQAGGSLRLSCAASGSTFVYNAMGWYRQAPGKERELVAAISTGGSTYYADSVKGRFTISRDNAKNTVYLQMNSLKPEDNAVYYCAAKQRTTLYDYWGQGTQVTVSS
[A] high polyreactivity
